OD450 nm listing for selected binders.
- target_system: T1, human MSLN-hFc protein (Acro, Cat. No. MSN-H5253) (human, UniProt Q13421 296-580)
- T1 construct: bought protein; also called human MSLN full-length protein; not shown: human Fc (hFc) of the bought protein
- T1 sequence (Q13421 other isoform, or with tags, fused parts or gaps limits assumed): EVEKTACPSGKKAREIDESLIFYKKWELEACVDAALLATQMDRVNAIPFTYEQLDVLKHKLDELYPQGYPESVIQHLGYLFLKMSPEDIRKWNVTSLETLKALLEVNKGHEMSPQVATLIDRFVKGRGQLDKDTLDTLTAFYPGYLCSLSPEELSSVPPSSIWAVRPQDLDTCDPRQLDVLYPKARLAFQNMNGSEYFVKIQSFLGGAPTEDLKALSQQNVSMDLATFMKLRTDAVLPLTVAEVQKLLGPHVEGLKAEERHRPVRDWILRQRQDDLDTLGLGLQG
- test_name: ELISA, coated human MSLN-hFc, antibody 0.0001 nM
The answer should be written as a number, with no unit following it.

Please review the entries below; each comes with its answer.
binder="F2.39.3-H8 (scFv, not shown: small tags and cut ends, also called S009-F2.39.3 humanized VH2 + VL4) scFv: EVQLVQSGAEVKKPGASVKVSCKASGYTFTNYWMHWVRQAPGQGLEWMGNINPSSGDSYYNERFMSRVTMTVDKSTSTAYMELSSLRSEDTAVYYCARSGGLWLAFWGQGTLVTVSSGGGGSGGGGSGGGGSDIVMTQTPLSLSVTPGQPASISCKSSQTLLNSVSQNNYLAWYQQKPGQSPTLLVYFASTRESGVPDRFSGSGSGTDFTLKISRVEAEDVGVYYCQQHYRTPYTFGGGTKVEIK" readout_value=0.05
binder="F2.39.3-H5 (scFv, not shown: small tags and cut ends, also called S009-F2.39.3 humanized VH2 + VL1) scFv: EVQLVQSGAEVKKPGASVKVSCKASGYTFTNYWMHWVRQAPGQGLEWMGNINPSSGDSYYNERFMSRVTMTVDKSTSTAYMELSSLRSEDTAVYYCARSGGLWLAFWGQGTLVTVSSGGGGSGGGGSGGGGSDIVMTQSPDSLAVSLGERATINCKSSQTLLNSVSQNNYLAWYQQKPGQSPKLLIYFASTRESGVPDRFSGSGSGTDFTLTISSLQAEDVAVYYCQQHYRTPYTFGGGTKVEIK" readout_value=0.06

We now examine a further binder.
input: Need OD450 nm of F2.39.3-H2 (scFv, not shown: small tags and cut ends, also called S009-F2.39.3 humanized VH1 + VL2) scFv: EVQLVQSGAEVKKPGASVKVSCKASGYTFTNYWMHWVRQAPGQGLEWMGNINPSSGDSYYNERFMSRVTMTVDKSTSTVYMELSSLRSEDTAVYYCARSGGLWLAFWGQGTLVTVSSGGGGSGGGGSGGGGSDIVMTQSPDSLAVSLGERATINCKSSQTLLNSVSQNNYLAWYQQKPGQSPTLLIYFASTRESGVPDRFSGSGSGTDFTLTISSLQAEDVAVYYCQQHYRTPYTFGGGTKVEIK , thanks.
output: 0.06
